- experimental.protocol: In vivo pharmacokinetic experiment: plasma and urine balenine after acute oral ingestion
- Design: species or system human
- conditions: both sexes, human, plasma, po, 4 mg/kg, 4 mg/kg oral, human, n = 6; read-out: Cmax (peak plasma concentration)
property.measured: Cmax (µM)
Number in µM, nothing else.

Using the record for Cn1cnc(CC(NC(=O)CCN)C(=O)O)c1 (stereo not shown) , report its Cmax.
7.1

* * *

- experimental.protocol: In vivo pharmacokinetic experiment: plasma and urine balenine after acute oral ingestion
- Set-up: species or system human
- conditions: both sexes, human, plasma, po, 10 mg/kg, 10 mg/kg oral (fragmented dose), human, n = 6; read-out: Cmax (peak plasma concentration)
property.measured: Cmax (µM)
Number in µM, nothing else.

Using the record for Cn1cnc(CC(NC(=O)CCN)C(=O)O)c1 (stereo not shown) , report its Cmax.
28.2
